// provenance: patent US11642336B2

# target_entity: 5-HT6 (Homo sapiens (Human))
# Sequence (P50406 whole entry, looked up, species assumed): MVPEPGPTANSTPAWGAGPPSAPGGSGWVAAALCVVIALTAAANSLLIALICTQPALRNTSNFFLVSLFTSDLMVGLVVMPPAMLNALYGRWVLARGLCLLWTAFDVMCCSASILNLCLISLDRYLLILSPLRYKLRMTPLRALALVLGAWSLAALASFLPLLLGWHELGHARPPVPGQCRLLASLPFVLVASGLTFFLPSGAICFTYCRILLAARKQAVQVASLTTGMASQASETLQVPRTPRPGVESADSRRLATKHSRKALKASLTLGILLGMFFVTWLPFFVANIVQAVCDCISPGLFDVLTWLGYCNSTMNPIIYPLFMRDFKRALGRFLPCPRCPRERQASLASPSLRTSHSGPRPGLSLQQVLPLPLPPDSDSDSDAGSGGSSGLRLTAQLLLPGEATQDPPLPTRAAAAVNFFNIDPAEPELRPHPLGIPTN
# measurement_notes: radioligand competition binding assay (Psychiatric Drug Screening Program)
property_name: Ki (nM)
One number for each entry, in nM.

{"compound": "CN(C)CCc1c[nH]c2cccc(O)c12", "reported": 72}

Now let's try a different one.
Input COc1cc(C(F)(F)F)c(OC)cc1[C@@H]1CCCNC1.Cl [Compound 8, hydrochloride] . Output Ki: 623

---

# target_entity: 5-HT2B (Homo sapiens (Human))
# measurement_notes: fluorescence-based Ca2+ imaging assay (Eurofins), stable h5-HT2B cell line
# condition_description: agonist potency
# Sequence (P41595 whole entry): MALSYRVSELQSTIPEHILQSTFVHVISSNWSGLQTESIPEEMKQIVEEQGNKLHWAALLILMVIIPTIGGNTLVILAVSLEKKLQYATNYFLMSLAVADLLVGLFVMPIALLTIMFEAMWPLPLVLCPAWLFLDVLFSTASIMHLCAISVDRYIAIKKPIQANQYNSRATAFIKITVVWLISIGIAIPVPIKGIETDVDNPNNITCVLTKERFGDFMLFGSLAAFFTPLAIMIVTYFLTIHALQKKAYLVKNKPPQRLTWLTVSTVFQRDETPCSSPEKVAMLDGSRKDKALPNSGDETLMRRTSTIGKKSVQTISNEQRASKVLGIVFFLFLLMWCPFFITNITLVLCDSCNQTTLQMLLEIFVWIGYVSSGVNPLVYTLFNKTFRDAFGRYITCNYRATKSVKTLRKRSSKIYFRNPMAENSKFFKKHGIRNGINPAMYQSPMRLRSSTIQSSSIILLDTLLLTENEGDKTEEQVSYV
property_name: pEC50
Give bare numbers, as −log10 of the molar value.

The reported value for COc1cc(C(F)(F)F)c(OC)cc1[C@@H]1CCCNC1.Cl [Compound 8, hydrochloride] in terms of pEC50 is 6.55

---

# target_entity: UniProt P41595
# measurement_notes: IP assay (Eurofins, IP1 HTRF), HEK293 cells
# Assay type: cell-based
# condition_description: % of Rmax of 5-HT
# Sequence (P41595 whole entry, looked up): as the sequence (P41595 whole entry) above
Counter-ions that a name gives are not always drawn.
property_name: 5-HT2B Rmax (%)
Answers are plain numbers, in %.

Worked set:
{"compound": "CCc1cc(OC)c([C@@H]2CCCNC2)cc1OC.Cl", "reported": 54}
{"compound": "COc1cc([C@@H]2CCCNC2)c(OC)cc1SC(C)C", "reported": 43}
{"compound": "COc1cc([C@@H]2CCCNC2)c(OC)cc1C#N", "reported": 45}
{"compound": "COc1cc([C@@H]2CCCNC2)c(OC)cc1I", "reported": 57}
{"compound": "COc1cc(C(F)(F)F)ccc1[C@@H]1CCCNC1 [Compound 53, hydrochloride]", "reported": 51}
{"compound": "CCCCc1cc(OC)c([C@@H]2CCCNC2)cc1OC [Compound 57, hydrochloride]", "reported": 18}
{"compound": "COc1cc(C(F)(F)F)c(OC)cc1[C@@H]1CNC[C@@H](C)C1.Cl (relative stereo)", "reported": 39}
{"compound": "CCSc1cc([C@@H]2CCCNC2)c(OC)cc1C(F)(F)F.Cl", "reported": 49}
{"compound": "COc1cc(C(F)(F)F)c(OC)cc1CCN [Compound 2C-TFM, reference compound]", "reported": 81}
{"compound": "CCOc1cc(C(F)(F)F)c(OC)cc1[C@@H]1CCCNC1.Cl", "reported": 26}

Dear reader, for each entry below, please note its 5-HT2B Rmax.
1. COc1cc(C2CC[C@@H](c3ccccc3OC)NC2)c(OC)cc1Br (stereo partly shown) [Compound 8a, reference compound]
2. CCOc1cc([C@@H]2CCCNC2)c(OC)cc1C(F)(F)F.Cl
3. COc1cc(C(F)(F)F)c(F)cc1[C@@H]1CCCNC1.Cl

1: 20; 2: 57; 3: 37

---

# target_entity: 5-HT2B (Homo sapiens (Human), UniProt P41595)
# measurement_notes: IP assay (Eurofins, IP1 HTRF), HEK293 cells
# Type: cell-based
# condition_description: bounds are conservative estimates
// label = Criterion met if Selectivity EC50 5-HT2B/EC50 5-HT2A is not less than 3, otherwise Criterion not met

Worked set:
{"compound": "CCOc1cc([C@@H]2CCCNC2)c(OC)cc1CC.Cl [Compound 34]", "target_entity": "5-HT2B (Homo sapiens (Human), UniProt P41595)", "group_label": "Criterion met"}
{"compound": "COc1cc(C(F)(F)F)c(OC)cc1C1CCCNC1C.Cl (stereo not drawn) [Compound 35]", "target_entity": "5-HT2B (Homo sapiens (Human), UniProt P41595)", "group_label": "Criterion met"}
{"compound": "CCOc1cc(CC)c(OC)cc1[C@@H]1CCCNC1 [Compound 43]", "target_entity": "5-HT2B (Homo sapiens (Human), UniProt P41595)", "group_label": "Criterion not met"}

Entry COc1cc(C(F)(F)F)c(OC)cc1[C@@H]1CNC[C@@H](C)C1.Cl (relative stereo) [Compound 36] : is its Selectivity EC50 5-HT2B/EC50 5-HT2A no less than 3?
Criterion not met

Is reported Selectivity EC50 5-HT2B/EC50 5-HT2A greater than or equal to 3 here: COc1cc([C@@H]2CCCNC2)c(OCF)cc1C(F)(F)F [Compound 39]
Criterion met

Quick check: does CCSc1cc([C@@H]2CCCNC2)c(OC)cc1C(F)(F)F.Cl [Compound 47] have Selectivity EC50 5-HT2B/EC50 5-HT2A greater than or equal to 3?
Criterion met

Identify whether the reported Selectivity EC50 5-HT2B/EC50 5-HT2A of the following compound is 3 or greater: COc1cc(C(F)(F)F)c(F)cc1[C@@H]1CCCNC1.Cl [Compound 51]
Criterion not met

---

# target_entity: 5-HT2C (Homo sapiens (Human), UniProt P28335)
# Sequence (P28335 whole entry, looked up): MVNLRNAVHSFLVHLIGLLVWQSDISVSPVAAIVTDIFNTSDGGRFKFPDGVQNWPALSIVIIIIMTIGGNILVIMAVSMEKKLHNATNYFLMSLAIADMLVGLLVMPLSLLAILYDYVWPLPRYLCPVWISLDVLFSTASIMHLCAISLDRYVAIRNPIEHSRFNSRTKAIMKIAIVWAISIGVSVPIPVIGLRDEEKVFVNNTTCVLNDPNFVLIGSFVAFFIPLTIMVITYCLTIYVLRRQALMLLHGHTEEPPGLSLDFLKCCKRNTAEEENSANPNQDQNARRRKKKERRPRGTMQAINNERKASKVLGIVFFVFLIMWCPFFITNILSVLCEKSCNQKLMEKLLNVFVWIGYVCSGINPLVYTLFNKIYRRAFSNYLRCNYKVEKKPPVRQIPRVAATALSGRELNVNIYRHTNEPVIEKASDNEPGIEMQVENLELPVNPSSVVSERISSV
# measurement_notes: Ca2+/Fluo-4 assay, stable h5-HT2C-HEK293 cell line;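 further: Agonist-induced intracellular Ca2+ rise read by Fluo-4 fluorescence in HEK293 cells stably expressing the human 5-HT2C receptor, each compound run in duplicate on three or more occasions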
# Format: cell-based
# condition_description: 5-HT2C [pEC50 ± S.E.M.], agonist potency, n = 3-4
property_name: EC50 (nM)
Numbers only, in nM.

5-HT2C (Homo sapiens (Human), UniProt P28335) EC50 of COc1cc(CC(C)N)c(OC)cc1I (stereo not shown) [drawing 22, reference compound] is 3.39

---

Give measured pEC50 for each item. Keep answers brief.
# target_entity: 5-HT2B (Homo sapiens (Human))
# measurement_notes: IP assay (Eurofins, IP1 HTRF), HEK293 cells;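 further: agonist effect read as cellular IP1 production by HTRF using a europium cryptate anti-IP1 antibody donor and D2-labeled IP1 acceptor, eight compound concentrations in each cell line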
# Assay type: cell-based
# condition_description: duplicate determinations, read-out: 5-HT2B EC50
Structures can show the parent of a compound that is named as a salt.
One number for each entry, as −log10 of the molar value.

Examples with their reported pEC50 follow.
{"compound": "CCSc1cc(OC)c([C@@H]2CCCNC2)cc1OC.Cl [Compound 28, hydrochloride]", "reported": 6.62}
{"compound": "COc1cc([C@@H]2CCCNC2)c(OC)cc1Br [Compound 12]", "reported": 6.72}
{"compound": "COc1cc(C(F)(F)F)c(OC)cc1C1CCC(C)NC1 (single isomer, unassigned) [Compound 38, hydrochloride]", "reported": 5.66}
{"compound": "COc1cc(C(F)(F)F)c(OC)cc1C1CCC(C)NC1 (single isomer, unassigned) [Compound 37, hydrochloride]", "reported": 6.21}
{"compound": "CCOc1cc([C@@H]2CCCNC2)c(OC)cc1C(F)(F)F.Cl [Compound 20, hydrochloride]", "reported": 6.24}
{"compound": "COc1cc([C@@H]2CCCNC2)c(OC)cc1C.Cl [Compound 24, hydrochloride]", "reported": 6.44}

Need pEC50 for each of these compounds.
1. CCOc1cc([C@@H]2CCCNC2)c(OC)cc1CC.Cl [Compound 34, hydrochloride]
2. COc1cc([C@@H]2CCCNC2)c(OC)cc1SC(C)C [Compound 26]
3. CCOc1cc(C(F)(F)F)c(OC)cc1[C@@H]1CCCNC1.Cl [Compound 30, hydrochloride]

[6.07, 5.92, 5.92]

---

# target_entity: UniProt:P41595
# measurement_notes: radioligand competition binding assay (Psychiatric Drug Screening Program)
# Sequence (P41595 whole entry, looked up, species assumed): as the sequence (P41595 whole entry) above
property_name: Ki (nM)
Give bare numbers, in nM.

Reported UniProt:P41595 Ki for item COc1cc(C(F)(F)F)c(OC)cc1[C@@H]1CCCNC1.Cl [Compound 8, hydrochloride] was 85

---

# target_entity: 5-HT1e (Homo sapiens (Human), UniProt P28566)
# Sequence (P28566 whole entry, looked up, species assumed): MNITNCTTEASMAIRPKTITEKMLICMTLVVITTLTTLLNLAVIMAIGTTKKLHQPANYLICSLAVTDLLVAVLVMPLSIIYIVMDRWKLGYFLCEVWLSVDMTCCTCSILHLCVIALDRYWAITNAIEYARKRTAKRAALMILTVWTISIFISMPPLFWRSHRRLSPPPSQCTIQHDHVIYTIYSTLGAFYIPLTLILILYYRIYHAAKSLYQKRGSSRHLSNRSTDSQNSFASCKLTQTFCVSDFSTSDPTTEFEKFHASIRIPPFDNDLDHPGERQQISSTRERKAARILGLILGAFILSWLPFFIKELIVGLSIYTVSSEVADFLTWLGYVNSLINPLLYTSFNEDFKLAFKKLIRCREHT
# measurement_notes: radioligand competition binding assay (Psychiatric Drug Screening Program)
property_name: Ki (nM)
Answers are plain numbers, in nM.

{"compound": "CN(C)CCc1c[nH]c2cccc(O)c12", "target_entity": "5-HT1e (Homo sapiens (Human), UniProt P28566)", "unit_of_measurement": "nM", "Ki": 44}

Switching to the query record.
Sample COc1cc(C(F)(F)F)c(OC)cc1[C@@H]1CCCNC1.Cl [Compound 8, hydrochloride] ; Ki observed: 762

---

# target_entity: human 5-HT2A (Homo sapiens (Human))
# measurement_notes: cell-based
# Assay type: cell-based
# condition_description: IP assay, duplicate determinations
Where a name gives a salt, the structure may show the parent alone.
I'd be grateful if you could share measured EC50 for these entries.
Numbers only, in nM.

// below: answered compounds
{"compound": "COc1cc(C(F)(F)F)c(OC)cc1C1CCC(C)NC1 (single isomer, unassigned) [Compound 38, hydrochloride]", "EC50, nM": 120}
{"compound": "COc1cc(C(F)(F)F)c(OC)cc1C1CCC(C)NC1 (single isomer, unassigned) [Compound 37, hydrochloride]", "EC50, nM": 1500}
{"compound": "COc1cc([C@@H]2CCCNC2)c(OC)cc1SC(C)C [Compound 26]", "EC50, nM": 1100}
{"compound": "COc1cc(C(F)(F)F)ccc1[C@@H]1CCCNC1 [Compound 53, hydrochloride]", "EC50, nM": 250}
{"compound": "COc1cc([C@@H]2CCCNC2)c(OC2CC2)cc1C(F)(F)F [Compound 55, hydrochloride]", "EC50, nM": 3000}
{"compound": "COc1cc([C@@H]2CCCNC2)c(OC)cc1Br [Compound 12]", "EC50, nM": 250}
{"compound": "COc1cc([C@@H]2CCCNC2)c(OC)cc1C#N [Compound 16]", "EC50, nM": 980}
{"compound": "COc1cc(C(F)(F)F)c(OC)cc1[C@@H]1CNC[C@@H](C)C1.Cl (relative stereo) [Compound 36, hydrochloride]", "EC50, nM": 41}

Please examine the following record next.
Reading of EC50 for CCOc1cc([C@@H]2CCCNC2)c(OC)cc1CC.Cl [Compound 34, hydrochloride] with human 5-HT2A (Homo sapiens (Human)): 160
